Hello, the source for this data is patent US20230257396A1, in case you need it.

Overview of reported % Ctrl, EGFR(L747-E749del, A750P) across a group of molecules:
Test system: kinases
method.description: KINOMEscan kinase binding assay (Eurofins/DiscoveRx), % Ctrl
experimental.conditions: 1 μM; target EGFR(L747-E749del, A750P)
readout.name: % Ctrl, EGFR(L747-E749del, A750P) (% Ctrl)

>>> numeric_value("Cc1cc2c([nH]1)/C=C1\\C(=O)Nc3ccc(cc31)-c1c(noc1C(C)C)COCCN(C)C2=O [Ex. 161]")
100
>>> numeric_value("Cc1cc2c([nH]1)/C=C1\\C(=O)Nc3ccc(cc31)-c1cnn(C)c1OCCCN(C)C2=O [Ex. 166]")
62
>>> numeric_value("Cc1cc2c([nH]1)/C=C1\\C(=O)Nc3cc(Cl)c(cc31)SCCOCCN(C)C2=O [Ex. 169]")
44
>>> numeric_value("CN1CCOc2cc3c(cc2Cl)NC(=O)/C3=C\\c2[nH]ccc2C(=O)N(C)CC1 [Ex. 164]")
19
>>> numeric_value("Cc1cc2c([nH]1)/C=C1\\C(=O)Nc3cnc(cc31)-c1cnn(C)c1CN(C)CCN(C)C2=O [Ex. 172]")
62
